Provide the reported Average Bacterial Assay Score, HCV p7 of each item.
Target: HCV p7 (Hepatitis C virus genotype 1a)
Construct: expressed in transfected cells
Sequence (P27958 747-809): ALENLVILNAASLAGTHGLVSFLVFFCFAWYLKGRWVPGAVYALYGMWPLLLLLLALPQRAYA
Assay: Bacterial bioassay, HCV p7
Format: cell-based
Parameters: scale not given here
Settings: mean bacterial bioassay score; p7 of HCV
No unit in the answer, please; the number alone is enough.

Give recorded Average Bacterial Assay Score, HCV p7. COc1cc(C(=O)NC(=N)N)c(OC)c2ccccc12
0.33

Give recorded Average Bacterial Assay Score, HCV p7. N=C(N)NC(=O)c1ccc2c(-c3cccs3)cccc2c1
0.08

Give recorded Average Bacterial Assay Score, HCV p7. Cc1nn(C)c(C)c1-c1cccc2cc(C(=O)NC(=N)N)ccc12
0.00

Give recorded Average Bacterial Assay Score, HCV p7. CC(=O)O.Cn1cc(-c2ccc3cc(C(=O)NC(=N)N)ccc3c2)cn1
3.30
